experiment: activity coefficient (dimensionless); of the first substance listed, at infinite dilution; xn = mol fraction of the nth substance listed; settings: 323.15 K; Liquid; Chromatography; x1 = 0
Label label 1 when activity coefficient is strictly below 7; at or above that, label label 0.

{"COMPOUND": "CCCCCCCCCCC [undecane] + CCCOC[n+]1ccn(C)c1.O=S(=O)([N-]S(=O)(=O)C(F)(F)F)C(F)(F)F", "GROUP": "label 0"}

Q: I'd appreciate it if you could check whether C[N+](=O)[O-] [nitromethane] + Cn1cc[n+](COCCCOC[n+]2ccn(C)c2)c1.N#C[N-]C#N.N#C[N-]C#N has activity coefficient smaller than 7.
A: label 1

Q: Same again, this time with CCCCCCCCCCCCCC [tetradecane] + CCCOC[n+]1ccn(C)c1.F[B-](F)(F)F
A: label 0

Q: Same again, this time with Cc1ccc(C)cc1 [1,4-dimethylbenzene] + CCCOC[n+]1ccn(Cc2ccccc2)c1.N#C[N-]C#N
A: label 1

Q: Same again, this time with C1CCCCC1 [cyclohexane] + CCCOC[n+]1ccn(C)c1.N#C[N-]C#N
A: label 0

Q: Same again, this time with CC(C)CO [2-methyl-1-propanol] + Cn1cc[n+](COCCCOC[n+]2ccn(C)c2)c1.O=S(=O)([N-]S(=O)(=O)C(F)(F)F)C(F)(F)F.O=S(=O)([N-]S(=O)(=O)C(F)(F)F)C(F)(F)F
A: label 1

###

test: activity coefficient (dimensionless); of the first substance listed, at infinite dilution; xn = mol fraction of the nth substance listed; details: 323.15 K; Liquid; Chromatography; x1 = 0
The entries below are paired with their reported activity coefficient.
Just the number, please, no unit attached.

Below are worked cases with known answers.
{"COMPOUND": "Cc1ccc(C)cc1 [1,4-dimethylbenzene] + N#C[N-]C#N.N#C[N-]C#N.c1ccc(Cn2cc[n+](COCCCOC[n+]3ccn(Cc4ccccc4)c3)c2)cc1", "VALUE REPORTED": 8.84}
{"COMPOUND": "CCc1ccccc1 [ethylbenzene] + Cn1cc[n+](COCCCOC[n+]2ccn(C)c2)c1.O=S(=O)([N-]S(=O)(=O)C(F)(F)F)C(F)(F)F.O=S(=O)([N-]S(=O)(=O)C(F)(F)F)C(F)(F)F", "VALUE REPORTED": 2.41}
{"COMPOUND": "CCc1ccccc1 [ethylbenzene] + Cn1cc[n+](COCCCOC[n+]2ccn(C)c2)c1.N#C[N-]C#N.N#C[N-]C#N", "VALUE REPORTED": 11.2}
{"COMPOUND": "Cc1cccc(C)c1 [1,3-dimethylbenzene] + CCCOC[n+]1ccc(N(C)C)cc1.O=S(=O)([N-]S(=O)(=O)C(F)(F)F)C(F)(F)F", "VALUE REPORTED": 1.4}

Alright, here's another compound for you.
Q: # query: activity coefficient of entry CCCCCCCCCCC [undecane] + CCCCCCCCn1cc[n+](COCCCOC[n+]2ccn(CCCCCCCC)c2C)c1C.O=S(=O)([N-]S(=O)(=O)C(F)(F)F)C(F)(F)F.O=S(=O)([N-]S(=O)(=O)C(F)(F)F)C(F)(F)F
A: 12.4

###

The entries below are paired with their reported activity coefficient.
experiment: activity coefficient (dimensionless); of the first substance listed, at infinite dilution; xn = mol fraction of the nth substance listed; conditions: 323.15 K; Liquid; Chromatography; x1 = 0
Just the number, please, no unit attached.

Below are worked cases with known answers.
{"COMPOUND": "C1CCCCCC1 [cycloheptane] + CCCOC[n+]1ccn(C)c1.F[B-](F)(F)F", "activity coefficient": 153}
{"COMPOUND": "CCC(C)=O [butanone] + CN(C)c1cc[n+](COCCCOC[n+]2ccc(N(C)C)cc2)cc1.O=S(=O)([N-]S(=O)(=O)C(F)(F)F)C(F)(F)F.O=S(=O)([N-]S(=O)(=O)C(F)(F)F)C(F)(F)F", "activity coefficient": 0.44}
{"COMPOUND": "CC(C)O [propan-2-ol] + Cn1cc[n+](COCCCOC[n+]2ccn(C)c2)c1.N#C[N-]C#N.N#C[N-]C#N", "activity coefficient": 1.39}

Q: # query: activity coefficient of entry c1ccncc1 [pyridine] + CCCOC[n+]1ccn(C)c1.N#C[N-]C#N
A: 0.91

###

The entries below are paired with their reported activity coefficient.
assay: activity coefficient (dimensionless); of the first substance listed, at infinite dilution; xn = mol fraction of the nth substance listed; details: 333.15 K; Liquid; Chromatography; x1 = 0
Just the number, please, no unit attached.

Below are worked cases with known answers.
{"MOLECULE": "c1ccccc1 [benzene] + CCCOC[n+]1ccn(Cc2ccccc2)c1.N#C[N-]C#N", "activity coefficient": 1.5}
{"MOLECULE": "CCCCCCCC [octane] + CCCCCCCCn1cc[n+](COCCC)c1C.N#C[N-]C#N", "activity coefficient": 10.1}

Alright, here's another molecule for you.
Q: # query: activity coefficient of entry CCCCCCCCC [nonane] + CCCOC[n+]1ccn(C)c1.F[B-](F)(F)F
A: 384

###

test: activity coefficient (dimensionless); of the first substance listed, at infinite dilution; xn = mol fraction of the nth substance listed; conditions: 323.15 K; Liquid; Chromatography; x1 = 0
VALUE KIND: activity coefficient
Just the number, please, no unit attached.

{"MOLECULE": "CCCCCCCCCC [decane] + CCCCCCCCn1cc[n+](COCCCOC[n+]2ccn(CCCCCCCC)c2C)c1C.O=S(=O)([N-]S(=O)(=O)C(F)(F)F)C(F)(F)F.O=S(=O)([N-]S(=O)(=O)C(F)(F)F)C(F)(F)F", "activity coefficient": 9.63}

Q: # query: activity coefficient of entry CC1CCCC1 [methylcyclopentane] + CCCCCCCCn1cc[n+](COCCCOC[n+]2ccn(CCCCCCCC)c2C)c1C.N#C[N-]C#N.N#C[N-]C#N
A: 4.75

Q: Same again, this time with C1CCCCC1 [cyclohexane] + CCCCCCCCn1cc[n+](COCCC)c1C.N#C[N-]C#N
A: 4.06

###

assay: activity coefficient (dimensionless); of the first substance listed, at infinite dilution; xn = mol fraction of the nth substance listed; settings: 333.15 K; Liquid; Chromatography; x1 = 0
Where activity coefficient equals or exceeds 4, the correct label is Met; where it does not, the label is Not met.

{"COMPOUND": "CC1CCCCC1 [methylcyclohexane] + CCCCCCCCn1cc[n+](COCCC)c1C.N#C[N-]C#N", "GROUP": "Met"}

Q: Hello, I need to know if CCCO [propan-1-ol] + CCCCCCCCn1cc[n+](COCCC)c1C.N#C[N-]C#N has measured activity coefficient not below 4. Thanks!
A: Not met

Q: Same again, this time with ClC(Cl)(Cl)Cl [tetrachloromethane] + CCCCCCCCn1cc[n+](COCCCOC[n+]2ccn(CCCCCCCC)c2C)c1C.N#C[N-]C#N.N#C[N-]C#N
A: Not met

Q: Same again, this time with CCO [ethanol] + CCCOC[n+]1ccn(Cc2ccccc2)c1.F[B-](F)(F)F
A: Not met

Q: Same again, this time with CCCCO [butan-1-ol] + CCCOC[n+]1ccn(C)c1.O=S(=O)([N-]S(=O)(=O)C(F)(F)F)C(F)(F)F
A: Not met

Q: Same again, this time with C#CCCCC [1-hexyne] + CCCCCCCCn1cc[n+](COCCCOC[n+]2ccn(CCCCCCCC)c2C)c1C.N#C[N-]C#N.N#C[N-]C#N
A: Not met

###

The entries below are paired with their reported activity coefficient.
test: activity coefficient (dimensionless); of the first substance listed, at infinite dilution; xn = mol fraction of the nth substance listed; conditions: 323.15 K; Liquid; Chromatography; x1 = 0
Just the number, please, no unit attached.

{"COMPOUND": "C[N+](=O)[O-] [nitromethane] + CCCCCCCCn1cc[n+](COCCCOC[n+]2ccn(CCCCCCCC)c2C)c1C.O=S(=O)([N-]S(=O)(=O)C(F)(F)F)C(F)(F)F.O=S(=O)([N-]S(=O)(=O)C(F)(F)F)C(F)(F)F", "activity coefficient": 0.31}
{"COMPOUND": "CC(C)OC(C)C [diisopropyl ether] + CCCOC[n+]1ccc(N(C)C)cc1.O=S(=O)([N-]S(=O)(=O)C(F)(F)F)C(F)(F)F", "activity coefficient": 4.49}
{"COMPOUND": "CC(C)O [propan-2-ol] + CCCCCCCCn1cc[n+](COCCCOC[n+]2ccn(CCCCCCCC)c2C)c1C.N#C[N-]C#N.N#C[N-]C#N", "activity coefficient": 0.4}
{"COMPOUND": "CCC(C)CC [3-methylpentane] + CCCOC[n+]1ccn(C)c1.O=S(=O)([N-]S(=O)(=O)C(F)(F)F)C(F)(F)F", "activity coefficient": 14.4}
{"COMPOUND": "ClC(Cl)(Cl)Cl [tetrachloromethane] + CCCOC[n+]1ccn(Cc2ccccc2)c1.N#C[N-]C#N", "activity coefficient": 2.5}

Q: # query: activity coefficient of entry CCCCCC [hexane] + CCCCCCCCn1cc[n+](COCCCOC[n+]2ccn(CCCCCCCC)c2C)c1C.N#C[N-]C#N.N#C[N-]C#N
A: 8.9

Q: Same again, this time with CCCO [propan-1-ol] + CCCCCCCCn1cc[n+](COCCCOC[n+]2ccn(CCCCCCCC)c2C)c1C.O=S(=O)([N-]S(=O)(=O)C(F)(F)F)C(F)(F)F.O=S(=O)([N-]S(=O)(=O)C(F)(F)F)C(F)(F)F
A: 0.72

Q: Same again, this time with CC(C)CO [2-methyl-1-propanol] + CCCOC[n+]1ccn(C)c1.F[B-](F)(F)F
A: 4.35

Q: Same again, this time with CO [methanol] + CN(C)c1cc[n+](COCCCOC[n+]2ccc(N(C)C)cc2)cc1.O=S(=O)([N-]S(=O)(=O)C(F)(F)F)C(F)(F)F.O=S(=O)([N-]S(=O)(=O)C(F)(F)F)C(F)(F)F
A: 0.91

Q: Same again, this time with CC(C)CC(C)(C)C [2,2,4-trimethylpentane] + CCCCCCCCn1cc[n+](COCCCOC[n+]2ccn(CCCCCCCC)c2C)c1C.N#C[N-]C#N.N#C[N-]C#N
A: 11.4

Q: Same again, this time with ClC(Cl)Cl [trichloromethane] + CCCCCCCCn1cc[n+](COCCC)c1C.O=S(=O)([N-]S(=O)(=O)C(F)(F)F)C(F)(F)F
A: 0.51

Q: Same again, this time with C#CCCCCC [1-heptyne] + CCCOC[n+]1ccc(N(C)C)cc1.O=S(=O)([N-]S(=O)(=O)C(F)(F)F)C(F)(F)F
A: 3.33

Q: Same again, this time with CCO [ethanol] + CCCCCCCCn1cc[n+](COCCC)c1C.N#C[N-]C#N
A: 0.39

Q: Same again, this time with CCc1ccccc1 [ethylbenzene] + CCCCCCCCn1cc[n+](COCCC)c1C.O=S(=O)([N-]S(=O)(=O)C(F)(F)F)C(F)(F)F
A: 1.01

Q: Same again, this time with Cc1ccccc1C [1,2-dimethylbenzene] + N#C[N-]C#N.N#C[N-]C#N.c1ccc(Cn2cc[n+](COCCCOC[n+]3ccn(Cc4ccccc4)c3)c2)cc1
A: 7.13

Q: Same again, this time with CC(C)O [propan-2-ol] + CCCCCCCCn1cc[n+](COCCC)c1C.O=S(=O)([N-]S(=O)(=O)C(F)(F)F)C(F)(F)F
A: 1.16

Q: Same again, this time with CCC(=O)CC [pentan-3-one] + CCCOC[n+]1ccn(Cc2ccccc2)c1.O=S(=O)([N-]S(=O)(=O)C(F)(F)F)C(F)(F)F
A: 0.43

Q: Same again, this time with c1ccsc1 [thiophene] + CCCCCCCCn1cc[n+](COCCC)c1C.N#C[N-]C#N
A: 0.66
